molecular target: GLP-1 receptor (GLP-1R) (UniProt P43220 24-463, limits assumed); experiment: cell-based or functional assay
Bridge positions count the residues as written; N and C are the ends. Square brackets hold non-standard residues; d marks the D form. Ends that are not written are not given here. stapled body chem0215 = not defined here; αMeL = CC(C)C[C@](C)(N)C(=O)O; Orn = NCCC[C@H](N)C(=O)O; Aib = CC(C)(N)C(=O)O
# key: entry, value: GLP-1 EC50 (nM); cAMP, agonistic activity
Note: unit nM is implicit; provide only the numeric part.

Y[Aib]QGTFTSDYSI[αMeL]LDKKAQ[Aib][Orn]FIEYLLEGGPSSGAPPPS-NH2 (linker 17-21 via stapled body chem0215; reading uncertain; also: further groups not given here) [Example 17]; 0.001

Input line: # input binder: Y[Aib]QGTFTSDYSI[αMeL]LDKKAQ[Aib]AFIEKLLEGGPSSGAPPPS-NH2 (linker 25-28 via Lys, AEEA, γGlu, C20 diacid) [Example 3] ; wanted: its GLP-1 EC50 (nM); cAMP, agonistic activity
Output line: 0.025

Input line: # input binder: Y[Aib]QGTFTSDYSI[αMeL]LDKKAQ[Aib]AFIKYLLEGGPSSGAPPPS-NH2 (linker 17-24 via Ida, Lys, Lys, γGlu, C20 diacid) [Example 18] ; wanted: its GLP-1 EC50 (nM); cAMP, agonistic activity
Output line: 0.008

Input line: # input binder: Y[Aib]QGTFTSDYSI[αMeL]LDKKAQ[Aib]KFIEFLIEGGPSSGAPPPS-NH2 (linker 17-21 via Ida, Lys, Lys, γGlu, C20 diacid) [Example 23] ; wanted: its GLP-1 EC50 (nM); cAMP, agonistic activity
Output line: 0.007

Input line: # input binder: Y[Aib]QGTFTSDYSI[αMeL]KDKKAQ[Aib]AFIQYLLEGGPSSGAPPPS-NH2 (bridge 14-17; not fully specified (bridges); also: stapled body (lipidated) structure only in drawing chem0245) [Example 42] ; wanted: its GLP-1 EC50 (nM); cAMP, agonistic activity
Output line: 0.007

Input line: # input binder: Y[Aib]QGTFTSDYSI[αMeL]LDKKAQ[Aib]KFIEYLLEGGPSSGAPPPS-NH2 (linker 17-21 via (2-2-oxoethyl)‑glycine, AEEA, AEEA, γGlu, C20 diacid) [Example 1] ; wanted: its GLP-1 EC50 (nM); cAMP, agonistic activity
Output line: 0.009

Input line: # input binder: Y[Aib]QGTFTSDYSI[αMeL]KDKKAQ[Aib]AFIEYLLEGGPSSGAPPPS-NH2 (bridge 14-17; not fully specified (bridges); also: stapled body (lipidated) structure only in drawing chem0251) [Example 45] ; wanted: its GLP-1 EC50 (nM); cAMP, agonistic activity
Output line: 0.005
